measurement.notes: Cytotoxicity against African green monkey Vero cells after 72 hrs by MTT assay
Type: cell-based
condition.info: chlorocebus sabaeus
Recorded measurements of CC50 at 72 h, one per entry

Here is how some compounds turned out for CC50 at 72 h.
INSERT INTO results (compound, reported) VALUES
  ('NNC(=O)c1ccncc1', '> 456 µM'),
  ('CCn1cc(C(=O)O)c(=O)c2cc(F)c(N3CCN(C(=O)CC[N+](=O)[O-])CC3)cc21', '> 149 µM'),
  ('CCn1cc(C(=O)O)c(=O)c2cc(F)c(N3CCN(C(=O)CC[N+](=O)[O-])CC3C)c(F)c21 (stereo not given)', '> 138 µM'),
  ('COc1c(N2C(C)CN(C(=O)CC[N+](=O)[O-])CC2C)c(F)cc2c(=O)c(C(=O)O)cn(C3CC3)c12 (stereo not given)', '> 127 µM');

Shifting focus to the compound that follows.
Answer with reported CC50 at 72 h of O=C(O)c1cn(C2CC2)c2cc(N3CCN(C(=O)CC[N+](=O)[O-])CC3)c(F)cc2c1=O
> 145 µM
